Target entity: human GLP-1R (Homo sapiens)
Construct: host or cells: HEK293
Protocol: GLP-1R cAMP assay (Example B1a, HTRF, 30 min at room temperature)
Assay type: cell-based
Measurement context: cAMP accumulation in HEK293 expressing human GLP-1R, no BETP, 30 min room temperature (Method B1a, compounds ID 1-609), Table 1; read-out: EC50
Value kind: pEC50
The value called pEC50 is obtained by taking minus log10 of the concentration in mol/L.

- Molecule: "Cc1cc(-n2nc3c(c2-n2ccn(-c4ccc5c(cnn5C)c4F)c2=O)[C@@H]2CC[C@H](C3)N2C(=O)c2cc3cc([C@H]4COC(C)(C)C4)ccc3n2[C@@]2(c3noc(=O)[nH]3)C[C@@H]2C)cc(C)c1F [Compound 423]"
  Result number: 5.67

Tell me its pEC50 given Cc1cc(-n2nc3c(c2-n2ccn(-c4ccc5c(cnn5C)c4F)c2=O)[C@@H]2CC[C@H](C3)N2C(=O)c2cc3cc([C@H]4CCOC(C)(C)C4)ccc3n2[C@@]2(CNC(=O)CO)C[C@@H]2C)cc(C)c1F [Compound 241] as the entry.
6.19

---

Target entity: human GLP-1R (Homo sapiens, UniProt P43220)
Construct: host or cells: HEK293
Sequence (P43220 24-463): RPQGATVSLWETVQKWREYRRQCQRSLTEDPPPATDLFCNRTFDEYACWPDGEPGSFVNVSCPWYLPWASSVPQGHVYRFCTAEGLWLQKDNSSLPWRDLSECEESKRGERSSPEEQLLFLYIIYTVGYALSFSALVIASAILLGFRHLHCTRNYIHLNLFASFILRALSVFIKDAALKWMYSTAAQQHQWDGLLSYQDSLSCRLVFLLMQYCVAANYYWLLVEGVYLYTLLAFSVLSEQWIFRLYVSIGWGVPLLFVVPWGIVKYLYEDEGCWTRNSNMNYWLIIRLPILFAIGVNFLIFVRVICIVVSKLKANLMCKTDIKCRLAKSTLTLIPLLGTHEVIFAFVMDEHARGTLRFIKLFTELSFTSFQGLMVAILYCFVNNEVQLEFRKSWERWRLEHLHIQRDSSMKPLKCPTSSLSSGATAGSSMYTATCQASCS
Protocol: GLP-1R cAMP assay (Example B1a, HTRF, 30 min at room temperature)
Assay type: cell-based
Measurement context: cAMP accumulation in HEK293 expressing human GLP-1R, no BETP, 30 min room temperature (Method B1a, compounds ID 1-609), Table 1; read-out: EC50
Value kind: pEC50
The value called pEC50 is obtained by taking minus log10 of the concentration in mol/L.

Tell me its pEC50 given Cc1cc(-n2nc3c(c2-n2ccn(-c4ccc5c(cnn5C)c4F)c2=O)[C@@H]2CC[C@H](C3)N2C(=O)c2cc3nc([C@H]4CCOC(C)(C)C4)sc3n2[C@@]2(c3noc(=O)[nH]3)C[C@@H]2C)cc(C)c1F as the entry.
5.84

Tell me its pEC50 given Cc1cc(-n2nc3c(c2-n2ccn(-c4ccc5c(cnn5C)c4F)c2=O)[C@@H]2CC[C@H](C3)N2C(=O)c2cc3cc([C@H]4CCOC5(CC5)C4)ccc3n2[C@@]2(c3noc(=O)[nH]3)C[C@@H]2C)cc(C)c1F as the entry.
7.28

Tell me its pEC50 given Cc1cc(-n2nc3c(c2-n2ccn(-c4ccc5c(cnn5C)c4F)c2=O)[C@@H]2CC[C@H](C3)N2C(=O)c2cc3cc(C4CCOC4(C)C)ccc3n2[C@@]2(c3noc(=O)[nH]3)C[C@@H]2C)cc(C)c1F (stereo partly shown) as the entry.
5.75

---

Target entity: human GLP-1R (Homo sapiens)
Construct: host or cells: HEK293
Protocol: GLP-1R cAMP assay (Example B1a, HTRF, 30 min at room temperature)
Assay type: cell-based
Measurement context: cAMP accumulation in HEK293 expressing human GLP-1R, no BETP, 30 min room temperature (Method B1a, compounds ID 1-609), Table 1; read-out: EC50
Catalogue of EC50 readings, one per entry.
Response body: numeric value in nM, unit text excluded.

Solved entries:
- Given smiles: "Cc1cc(-n2nc3c(c2-n2ccn(-c4ccc5c(cnn5C)c4F)c2=O)[C@@H]2CC[C@H](C3)N2C(=O)c2cc3cc([C@H]4CCOC(C)(C)C4)cnc3n2[C@@]2(c3noc(=O)[nH]3)C[C@@H]2C)cc(C)c1F"
  EC50 (nM): 18.7
- Given smiles: "Cc1cc(-n2nc3c(c2-n2ccn(-c4ccc5c(cnn5C)c4F)c2=O)[C@@H]2CC[C@H](C3)N2C(=O)c2cc3cc([C@@H]4CCOC4(C)C)ccc3n2[C@@]2(c3noc(=O)[nH]3)C[C@@H]2C)cc(C)c1F"
  EC50 (nM): 650

Continue with the next compound.
Tell me its EC50 given CC[C@@H]1C[C@@]1(c1noc(=O)[nH]1)n1c(C(=O)N2[C@@H]3CC[C@H]2c2c(nn(-c4cc(C)c(F)c(C)c4)c2-n2ccn(-c4ccc5c(cnn5C)c4F)c2=O)C3)cc2cc([C@H]3CCOC(C)(C)C3)ccc21 as the entry.
3870

---

Target entity: human GLP-1R (Homo sapiens, UniProt P43220)
Construct: host or cells: HEK293
Protocol: GLP-1R cAMP assay (Example B1a, HTRF, 30 min at room temperature)
Format: cell-based
Measurement context: cAMP accumulation in HEK293 expressing human GLP-1R, no BETP, 30 min room temperature (Method B1a, compounds ID 1-609), Table 1; read-out: EC50
Value kind: pEC50
The value called pEC50 is obtained by taking minus log10 of the concentration in mol/L.

Tell me its pEC50 given Cc1cc(-n2nc3c(c2-n2ccn(-c4ccc5c(cnn5C)c4F)c2=O)[C@@H]2CC[C@H](C3)N2C(=O)c2cc3cc([C@H]4CCOC(C)(C)C4)ccc3n2[C@@]2(c3noc(=O)[nH]3)C[C@@H]2C)cc(C)c1F [Compound 36] as the entry.
6.96

---

Protocol: Pharmacokinetic analysis in cynomolgus monkeys
Measurement context: male, cynomolgus monkey, plasma, po, 0.36 mg/kg
Value kind: half-life (h)
Response body: numeric value in h, unit text excluded.

Tell me its half-life given Cc1cc(-n2nc3c(c2-n2ccn(-c4ccc5c(cnn5C)c4F)c2=O)[C@H](C)N(C(=O)c2cc4cc([C@H]5CCOC(C)(C)C5)ccc4n2[C@@]2(c4noc(=O)[nH]4)C[C@@H]2C)CC3)cc(C)c1F [Orforglipron, orforglipron, reference compound] as the entry.
4.24

---

Protocol: Pharmacokinetic analysis in male SD rats
Format: in vivo
Measurement context: Sprague-Dawley (SD), rat, plasma, 1.0 mg/kg iv
Value kind: AUC(0-inf) (ng·h/mL)
Response body: numeric value in ng·h/mL, unit text excluded.

Solved entries:
- Compound: "Cc1cc(-n2nc3c(c2-n2ccn(-c4ccc5c(cnn5C)c4F)c2=O)[C@H](C)N(C(=O)c2cc4cc([C@H]5CCOC(C)(C)C5)ccc4n2[C@@]2(c4noc(=O)[nH]4)C[C@@H]2C)CC3)cc(C)c1F [Orforglipron, orforglipron, reference compound]"
  AUC(0-inf) [ng·h/mL]: 6840
- Compound: "Cc1cc(-n2nc3c(c2-n2ccn(-c4ccc5c(cnn5C)c4F)c2=O)[C@@H]2CC[C@H](C3)N2C(=O)c2cc3cc([C@H]4CCOC(C)(C)C4)ccc3n2[C@@]2(c3noc(=O)[nH]3)C[C@@H]2C)cc(C)c1F"
  AUC(0-inf) [ng·h/mL]: 5050
- Compound: "Cc1cc(-n2nc3c(c2-n2ccn(-c4ccc5c(cnn5C)c4F)c2=O)[C@@H]2COC[C@H](C3)N2C(=O)c2cc3cc([C@H]4CCOC(C)(C)C4)ccc3n2[C@@]2(c3noc(=O)[nH]3)C[C@@H]2C)cc(C)c1F"
  AUC(0-inf) [ng·h/mL]: 3330

Continue with the next compound.
Tell me its AUC(0-inf) given Cc1cc(-n2nc3c(c2-n2ccn(-c4ccc5c(cnn5C)c4F)c2=O)[C@@H]2CC[C@H](C3)N2C(=O)c2cc3cc([C@H]4CCOC5(CC5)C4)ccc3n2[C@@]2(c3noc(=O)[nH]3)C[C@@H]2C)cc(C)c1F as the entry.
4640

---

Catalogue of EC50 readings, one per entry.
Target entity: human GLP-1R (Homo sapiens, UniProt P43220)
Construct: host or cells: HEK293
Protocol: GLP-1R cAMP assay (Example B1a, HTRF, 30 min at room temperature)
Assay type: cell-based
Measurement context: cAMP accumulation in HEK293 expressing human GLP-1R, no BETP, 30 min room temperature (Method B1a, compounds ID 1-609), Table 1; read-out: EC50

- Compound: "Cc1cc(-n2nc3c(c2-n2ccn(-c4ccc5c(cnn5C)c4F)c2=O)CN(S(=O)(=O)c2cc4cc(C5CCOC(C)(C)C5)ccc4n2[C@@]2(c4noc(=O)[nH]4)C[C@@H]2C)CCC3)cc(C)c1F (stereo partly drawn)"
  Value kind: "EC50"
  Result: "≥ 10 µM"
- Compound: "Cc1cc(-n2nc3c(c2-n2ccn(-c4ccc5c(cnn5C)c4F)c2=O)[C@H]2CC[C@@H]([C@H]3F)N2C(=O)c2cc3cc([C@H]4CCOC(C)(C)C4)ccc3n2[C@@]2(c3noc(=O)[nH]3)C[C@@H]2C)cc(C)c1F"
  Value kind: "EC50"
  Result: "≥ 10 µM"
- Compound: "Cc1cc(-n2nc3c(c2-n2ccn(-c4ccc5c(cnn5C)c4)c2=O)[C@@H]2CC[C@H](C3)N2C(=O)c2cc3cc([C@H]4CCOC5(CC5)C4)ccc3n2[C@@]2(c3noc(=O)[nH]3)C[C@@H]2C)cc(C)c1F"
  Value kind: "EC50"
  Result: "0.0793 µM"

State EC50 (human GLP-1R (Homo sapiens, UniProt P43220)) of Cc1cc(-n2nc3c(c2-n2ccn(-c4ccc5ccncc5c4F)c2=O)[C@@H]2CCC[C@H](C3)N2S(=O)(=O)c2cc3cc([C@H]4CCOC(C)(C)C4)ccc3n2[C@]2(c3noc(=O)[nH]3)C[C@@H]2C)cc(C)c1F .
≥ 10 µM

State EC50 (human GLP-1R (Homo sapiens, UniProt P43220)) of Cc1cc(-n2nc3c(c2-c2ncn(-c4ccc5c(cnn5C)c4F)c2C)[C@H](C)N(C(=O)c2cc4cc(C5=CCC(F)(F)CC5)ccc4n2C2(c4noc(=O)[nH]4)CC2)CC3)cc(C)c1F .
> 10 µM

State EC50 (human GLP-1R (Homo sapiens, UniProt P43220)) of Cc1cc(-n2nc3c(c2-n2ccn(-c4ccc5c(cnn5C)c4F)c2=O)[C@@H]2CCC[C@H](C3)N2S(=O)(=O)c2cc3cc(N4CCOC5(CC5)C4)ccc3n2[C@@]2(c3noc(=O)[nH]3)C[C@@H]2C)cc(C)c1F .
1.89 µM

State EC50 (human GLP-1R (Homo sapiens, UniProt P43220)) of Cc1cc(-n2nc3c(c2-n2ccn(-c4ccc5c(cnn5C)c4F)c2=O)[C@@H]2CC[C@H](C3)N2C(=O)c2cc3c(=O)n([C@H]4CCOC(C)(C)C4)ccc3n2[C@@]2(c3noc(=O)[nH]3)C[C@@H]2C)cc(C)c1F .
> 10 µM

State EC50 (human GLP-1R (Homo sapiens, UniProt P43220)) of Cc1cc(-n2nc3c(c2-n2ccn(-c4ccc5c(cnn5C)c4F)c2=O)[C@@H]2CC[C@H](C3)N2C(=O)c2cc3cc(C4CCOC5(CC5)C4)ccc3n2[C@@]2(c3noc(=O)[nH]3)C[C@@H]2C)cc(C)c1F (stereo partly drawn) .
0.0812 µM

State EC50 (human GLP-1R (Homo sapiens, UniProt P43220)) of Cc1cc(-n2nc3c(c2-n2ccn(-c4ccc5c(cnn5C)c4F)c2=O)[C@H]2CC[C@@H](C3)N2C(=O)c2cc3cc([C@H]4CCOC5(CC5)C4)ccc3n2[C@]2(c3noc(=O)[nH]3)C[C@H]2C)cc(C)c1F .
≥ 10 µM
